Reference source for all entries: patent US9273040B2

molecular target: human Nav1.5 channels stably expressed in HEK 293 cells (Homo sapiens); construct: expressed in transfected cells; test: PatchXpress 7000 automated patch-clamp, sodium current; format: cell-based; details: selectivity over Nav1.5
value kind: ratio of Nav 1.5:Nav 1.7 potency, determined by PatchXpress measurement
I only need the number, thanks.

The cases that follow already have their ratio of Nav 1.5:Nav 1.7 potency, determined by PatchXpress measurement on record.
Q. State the recorded ratio of Nav 1.5:Nav 1.7 potency, determined by PatchXpress measurement for this entry: Cc1n[nH]cc1-c1cccc([C@@H](C)n2c(=O)oc3cc(S(=O)(=O)Nc4ncns4)c(F)cc32)c1 [Compound 28-5]
A. 64

Q. State the recorded ratio of Nav 1.5:Nav 1.7 potency, determined by PatchXpress measurement for this entry: C[C@H](c1ccccc1C#CCO)n1c(=O)oc2cc(S(=O)(=O)Nc3ncns3)c(F)cc21 [Compound 17-9]
A. 45

Q. State the recorded ratio of Nav 1.5:Nav 1.7 potency, determined by PatchXpress measurement for this entry: Cc1n[nH]cc1-c1cccc([C@@H](C)n2c(=O)oc3cc(S(=O)(=O)Nc4nccs4)c(F)cc32)c1 [Compound 43-24]
A. 33

Please examine the following record next.
Q. State the recorded ratio of Nav 1.5:Nav 1.7 potency, determined by PatchXpress measurement for this entry: NC1Cc2cccc(Cn3c(=O)oc4cc(S(=O)(=O)Nc5ncns5)c(F)cc43)c2C1 (racemic) [Compound 23-17]
A. 321

###

Target: human Nav1.5 channels stably expressed in HEK 293 cells (Homo sapiens, UniProt Q14524)
Construct: expressed in transfected cells
Sequence (Q14524 whole entry): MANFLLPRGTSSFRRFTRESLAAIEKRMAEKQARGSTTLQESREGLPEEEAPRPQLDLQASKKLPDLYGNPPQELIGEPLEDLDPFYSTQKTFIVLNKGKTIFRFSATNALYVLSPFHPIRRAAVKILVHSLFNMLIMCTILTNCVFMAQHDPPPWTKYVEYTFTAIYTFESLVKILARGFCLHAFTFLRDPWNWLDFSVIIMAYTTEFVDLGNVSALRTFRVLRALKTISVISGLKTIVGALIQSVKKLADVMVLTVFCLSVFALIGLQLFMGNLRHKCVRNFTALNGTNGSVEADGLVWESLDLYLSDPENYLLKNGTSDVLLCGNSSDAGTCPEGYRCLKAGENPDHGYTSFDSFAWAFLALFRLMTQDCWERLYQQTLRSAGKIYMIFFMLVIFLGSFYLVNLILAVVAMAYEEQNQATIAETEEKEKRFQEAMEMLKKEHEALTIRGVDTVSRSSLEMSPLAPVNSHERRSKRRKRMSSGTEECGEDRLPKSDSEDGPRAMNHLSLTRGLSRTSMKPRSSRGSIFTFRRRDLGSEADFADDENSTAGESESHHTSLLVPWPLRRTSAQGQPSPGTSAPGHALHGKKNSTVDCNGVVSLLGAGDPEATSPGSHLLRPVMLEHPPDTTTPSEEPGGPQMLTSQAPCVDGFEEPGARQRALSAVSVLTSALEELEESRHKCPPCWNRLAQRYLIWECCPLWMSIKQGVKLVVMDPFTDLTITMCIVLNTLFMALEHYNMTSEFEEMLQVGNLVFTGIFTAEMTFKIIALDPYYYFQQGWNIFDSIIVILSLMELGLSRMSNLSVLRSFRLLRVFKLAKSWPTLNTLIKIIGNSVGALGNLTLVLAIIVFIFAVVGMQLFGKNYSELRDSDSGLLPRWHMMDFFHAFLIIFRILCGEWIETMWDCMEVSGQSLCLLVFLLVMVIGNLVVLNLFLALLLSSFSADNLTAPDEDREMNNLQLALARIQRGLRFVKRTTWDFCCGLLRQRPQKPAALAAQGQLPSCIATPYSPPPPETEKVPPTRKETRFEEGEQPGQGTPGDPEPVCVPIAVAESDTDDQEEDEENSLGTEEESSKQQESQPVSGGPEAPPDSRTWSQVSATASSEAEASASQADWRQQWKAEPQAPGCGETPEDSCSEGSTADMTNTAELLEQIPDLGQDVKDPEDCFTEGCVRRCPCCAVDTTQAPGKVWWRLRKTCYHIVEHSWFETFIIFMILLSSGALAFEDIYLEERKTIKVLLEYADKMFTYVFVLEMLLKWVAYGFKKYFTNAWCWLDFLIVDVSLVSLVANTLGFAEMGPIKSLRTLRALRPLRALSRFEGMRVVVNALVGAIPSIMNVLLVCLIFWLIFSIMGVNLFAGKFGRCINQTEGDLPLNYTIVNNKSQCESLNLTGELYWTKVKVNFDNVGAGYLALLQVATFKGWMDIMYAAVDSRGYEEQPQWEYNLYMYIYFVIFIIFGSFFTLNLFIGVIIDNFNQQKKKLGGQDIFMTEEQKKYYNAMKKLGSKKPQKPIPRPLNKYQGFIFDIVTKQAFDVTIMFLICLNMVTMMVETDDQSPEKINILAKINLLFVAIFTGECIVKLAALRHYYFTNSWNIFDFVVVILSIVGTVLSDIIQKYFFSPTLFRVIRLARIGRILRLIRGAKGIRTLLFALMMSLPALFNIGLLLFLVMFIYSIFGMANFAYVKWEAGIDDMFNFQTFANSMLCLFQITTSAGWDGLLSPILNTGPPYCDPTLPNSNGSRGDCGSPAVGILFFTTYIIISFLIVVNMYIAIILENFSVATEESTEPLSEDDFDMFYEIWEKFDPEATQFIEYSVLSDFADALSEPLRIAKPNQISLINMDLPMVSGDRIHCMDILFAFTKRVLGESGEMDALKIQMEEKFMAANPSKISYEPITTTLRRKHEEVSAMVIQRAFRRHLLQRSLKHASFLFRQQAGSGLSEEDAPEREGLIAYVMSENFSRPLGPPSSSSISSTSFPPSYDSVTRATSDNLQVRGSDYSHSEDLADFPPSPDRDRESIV
Assay: PatchXpress 7000 automated patch-clamp, sodium current
Format: cell-based
Details: selectivity over Nav1.5
Method: To measure state and use-dependent sodium channel inhibition, test compounds were further characterized in an automated PatchXpress® assay (Molecular Devices). Two voltage-clamp protocols were used. […] For all electrophysiology experiments, offline analysis was used to correct for current rundown and to determine percent inhibition as a function of drug concentration. IC50 values were determined by fitting to the Hill equation.
Class membership depends on ratio of Nav 1.5:Nav 1.7 potency, determined by PatchXpress measurement alone; the intervals are small value = under 100, mid value = from 100 up to 400, large value = 400 and over

Q. Dear colleague, I would appreciate it if you could identify the bin for C[C@H](c1cccc2c1CC(N)CC2)n1c(=O)oc2cc(S(=O)(=O)Nc3ncns3)c(F)cc21 (single isomer, unassigned) [Compound 23-25] and reply at your convenience.
A. mid value

New cases:
Q. Dear colleague, I would appreciate it if you could identify the bin for O=c1oc2cc(S(=O)(=O)Nc3nccs3)c(F)cc2n1C1CCCc2ccc(F)cc21 (stereo not shown) [Compound 43-12] and reply at your convenience.
A. mid value

Q. Dear colleague, I would appreciate it if you could identify the bin for C[C@H](c1ccccc1C1CNC1)n1c(=O)oc2cc(S(=O)(=O)Nc3nccs3)c(F)cc21 [Compound 43-21] and reply at your convenience.
A. large value

Q. Dear colleague, I would appreciate it if you could identify the bin for C[C@H](c1ccccc1C1=CCN(S(C)(=O)=O)CC1)n1c(=O)oc2cc(S(=O)(=O)Nc3ncns3)c(Cl)cc21 [Compound 36-1] and reply at your convenience.
A. small value

Q. Dear colleague, I would appreciate it if you could identify the bin for C[C@H](c1ccccc1C1(O)CNC1)n1c(=O)oc2cc(S(=O)(=O)Nc3nccs3)c(F)cc21 [Compound 43-22] and reply at your convenience.
A. large value

Q. Dear colleague, I would appreciate it if you could identify the bin for O=c1oc2cc(S(=O)(=O)Nc3nccs3)c(F)cc2n1C1CCCc2c(F)cc(F)cc21 (stereo not shown) [Compound 43-9] and reply at your convenience.
A. small value

Q. Dear colleague, I would appreciate it if you could identify the bin for C[C@H](c1cccc2c1CNCC2)n1c(=O)oc2cc(S(=O)(=O)Nc3ncns3)c(F)cc21 [Compound 13-2] and reply at your convenience.
A. mid value

Q. Dear colleague, I would appreciate it if you could identify the bin for O=c1oc2cc(S(=O)(=O)Nc3ncns3)c(F)cc2n1C1CCOc2ccc(F)cc21 (stereo not shown) [Compound 39-13] and reply at your convenience.
A. mid value

Q. Dear colleague, I would appreciate it if you could identify the bin for C[C@@H](c1cccc2ccncc12)n1c(=O)oc2cc(S(=O)(=O)Nc3ncns3)ccc21 [Compound 14-9] and reply at your convenience.
A. small value

Q. Dear colleague, I would appreciate it if you could identify the bin for O=c1oc2cc(S(=O)(=O)Nc3ncns3)c(F)cc2n1C1CC2(CCN(Cc3ccccc3)CC2)Oc2ccccc21 (stereo not shown) [Compound 39-11] and reply at your convenience.
A. mid value

Q. Dear colleague, I would appreciate it if you could identify the bin for CC(N)C#Cc1ccccc1[C@@H](C)n1c(=O)oc2cc(S(=O)(=O)Nc3ncns3)c(F)cc21 (stereo partly shown) [Compound 17-19] and reply at your convenience.
A. large value

Q. Dear colleague, I would appreciate it if you could identify the bin for Cl.O=c1oc2cc(S(=O)(=O)Nc3ncns3)c(F)cc2n1Cc1cccc2c1CNCC2F (stereo not shown) [Compound 24-9] and reply at your convenience.
A. large value

Q. Dear colleague, I would appreciate it if you could identify the bin for O=c1oc2cc(S(=O)(=O)Nc3nccs3)c(F)cc2n1Cc1cccc2c1CNCC2F (racemic) [Compound 43-26] and reply at your convenience.
A. mid value

Q. Dear colleague, I would appreciate it if you could identify the bin for O=c1oc2cc(S(=O)(=O)Nc3nccs3)c(F)cc2n1C1CCCc2ccc(Cl)nc21 (stereo not shown) [Compound 43-5] and reply at your convenience.
A. mid value

Q. Dear colleague, I would appreciate it if you could identify the bin for C[C@H](c1ccccc1C#CC1(N)CC1)n1c(=O)oc2cc(S(=O)(=O)Nc3ncns3)c(F)cc21 [Compound 17-1] and reply at your convenience.
A. mid value

Q. Dear colleague, I would appreciate it if you could identify the bin for Nc1ccc2c(c1)C(n1c(=O)oc3cc(S(=O)(=O)Nc4ncns4)c(F)cc31)CCC2 (stereo not shown) [Compound 39-3] and reply at your convenience.
A. large value

Q. Dear colleague, I would appreciate it if you could identify the bin for CC(c1cccc2c1CC(N)CC2)n1c(=O)oc2cc(S(=O)(=O)Nc3ncns3)c(F)cc21 (racemic) [Compound 23-24] and reply at your convenience.
A. large value

Q. Dear colleague, I would appreciate it if you could identify the bin for O=c1oc2cc(S(=O)(=O)Nc3nccs3)c(F)cc2n1C1CC2(CCC2)Oc2ccc(F)cc21 (stereo not shown) [Compound 43-11] and reply at your convenience.
A. mid value

Q. Dear colleague, I would appreciate it if you could identify the bin for C[C@H](c1ccccc1C#CCN1CCOCC1)n1c(=O)oc2cc(S(=O)(=O)Nc3ncns3)c(F)cc21 [Compound 17-2] and reply at your convenience.
A. small value

Q. Dear colleague, I would appreciate it if you could identify the bin for C[C@H](c1cccc2c1CNCC2)n1c(=O)oc2cc(S(=O)(=O)Nc3nccs3)c(F)cc21 [Compound 43-15] and reply at your convenience.
A. mid value

Q. Dear colleague, I would appreciate it if you could identify the bin for C[C@H](c1cccc2c1CNCC2)n1c(=O)oc2cc(S(=O)(=O)Nc3nccs3)ccc21 [Compound 42-1] and reply at your convenience.
A. large value

###

Let's look at some compounds and their measured ratio of Nav 1.5:Nav 1.7 potency, determined by PatchXpress measurement.
target: human Nav1.5 channels stably expressed in HEK 293 cells (Homo sapiens); construct: expressed in transfected cells; experiment: PatchXpress 7000 automated patch-clamp, sodium current; format: cell-based; conditions: selectivity over Nav1.5
I only need the number, thanks.

The cases that follow already have their ratio of Nav 1.5:Nav 1.7 potency, determined by PatchXpress measurement on record.
Q. Test system human Nav1.5 channels stably expressed in HEK 293 cells (Homo sapiens); read-out ratio of Nav 1.5:Nav 1.7 potency, determined by PatchXpress measurement; what value for CCN1CCc2cccc(Cn3c(=O)oc4cc(S(=O)(=O)Nc5ncns5)ccc43)c2C1 [Compound 6-2] ?
A. 71

Q. Test system human Nav1.5 channels stably expressed in HEK 293 cells (Homo sapiens); read-out ratio of Nav 1.5:Nav 1.7 potency, determined by PatchXpress measurement; what value for COC(=O)NC1CCc2cccc(Cn3c(=O)oc4cc(S(=O)(=O)Nc5ncns5)c(F)cc43)c2C1 (single isomer, unassigned) [Compound 23-1] ?
A. 71

Q. Test system human Nav1.5 channels stably expressed in HEK 293 cells (Homo sapiens); read-out ratio of Nav 1.5:Nav 1.7 potency, determined by PatchXpress measurement; what value for O=c1oc2cc(S(=O)(=O)Nc3ncns3)c(F)cc2n1C1CCCc2ccccc21 (centres unmarked) [Compound 39-10] ?
A. 199

Please examine the following record next.
Q. Test system human Nav1.5 channels stably expressed in HEK 293 cells (Homo sapiens); read-out ratio of Nav 1.5:Nav 1.7 potency, determined by PatchXpress measurement; what value for O=c1oc2cc(S(=O)(=O)Nc3nccs3)c(F)cc2n1C1CCCc2cccnc21 (centres unmarked) [Compound 43-4] ?
A. 71
